Catalogue of EC50 values
test system: wild strain of HIV-1 NL4-3; experiment: Inhibition of viral proliferation on culture cells (MT-4, MTT), wild strain; assay type: cell-based; details: Human immunodeficiency virus 1, NL43, read-out: NL4-3 wt
Answer format: numeric, nM implied, no suffix.

[[record]]
molecule = "Cc1c(C(C)c2c(F)cccc2F)nc(SCC=Cc2ccc(C#N)cc2)[nH]c1=O (stereo not shown) [Compound 26o]"
endpoint_result = 140

[[record]]
molecule = "CCc1c(C(C)c2c(F)cccc2F)nc(SCC=Cc2ccc(OC)cc2)[nH]c1=O (stereo not shown) [Compound 26p]"
endpoint_result = 0.2

[[record]]
molecule = "COc1ccc(C=CCSc2nc(Cc3c(F)cccc3F)c(C)c(=O)[nH]2)cc1 [Compound 26l]"
endpoint_result = 43


Next:
# input Tell me the measured EC50 of COc1ccc(/C=C/CSc2nc(Cc3c(Cl)cccc3Cl)c(C)c(=O)[nH]2)cc1 [Compound 26a] , please.
# output 15

* * *

Entries and their EC50 values follow.
system: HIV-1 mutant K103N; test: Inhibition of viral proliferation on culture cells (MT-4, MTT), K103N mutant; type: cell-based; conditions: Human immunodeficiency virus 1, read-out: K100N

Please review the following examples before continuing.
[[record]]
compound = "CCc1c(C(C)c2c(F)cccc2F)nc(SCC=Cc2ccc(C#N)cc2)[nH]c1=O (centres unmarked) [Compound 26r]"
measured_property = "EC50"
endpoint_result = "> 27200 nM"

[[record]]
compound = "Cc1c(Cc2c(F)cccc2F)nc(SCC=Cc2ccc([N+](=O)[O-])cc2)[nH]c1=O [Compound 26i]"
measured_property = "EC50"
endpoint_result = "> 11600 nM"


Now look at this entry.
# input Name the recorded EC50 for CCc1c(C(C)c2c(F)cccc2F)nc(SCC=Cc2ccc(OC)cc2)[nH]c1=O (centres unmarked) [Compound 26p] .
# output 1020 nM

* * *

biological target: HIV-1 (recombinant) reverse transcriptase (Human immunodeficiency virus type 1 group M subtype B, UniProt P03366); construct: 20-50 nM HIV-1 (recombinant) reverse transcriptase; experiment: Enzyme test: reverse transcription reaction in vitro with recombinant RT, wild type; type: biochemical; details: Table 1; recombinant RT wild type; read-out: ID50 WT
Measured Property: pIC50
Convention used: pIC50 is expressed as -log10 of the molar concentration.

Worked examples follow.
[[record]]
compound = "C=Cc1cc(N(C)C)nc(S(C)(=O)=O)n1"
endpoint_result = 7.66

[[record]]
compound = "C=Cc1nc(S(C)(=O)=O)nc(N(C)C)c1I"
endpoint_result = 3.56

[[record]]
compound = "C=Cc1cc(N(CC)CC)nc(S(=O)(=O)Cc2ccc(OC)cc2)n1"
endpoint_result = 3.33


Proceeding to the next compound to report its pIC50.
# input Record request: pIC50 value, item C=Cc1cc(N(CC)CC)nc(S(C)(=O)=O)n1 [MB3B, reference compound]
# output 4.67

* * *

system: HIV-1 mutant Y181L; assay: Inhibition of viral proliferation on culture cells (MT-4, MTT), Y181L mutant; format: cell-based; conditions: Table 1; MT-4 cells; read-out: EC50 Y181L
pEC50: −log10 of the molar value.
Measured Property: pEC50

# input Lab note: need pEC50 for "C=Cc1cc(N(CC)CC)nc(SCc2ccc(OC)cc2)n1" on HIV-1 mutant Y181L, anyone have it?
# output < 4.45

* * *

molecular target: reverse transcriptase containing the mutation Y181I (Human immunodeficiency virus type 1 group M subtype B, UniProt P03366, Y780I); construct: cloning the gene of the mutated RT in an expression vector for prokariotic cells; experiment: Enzyme test with mutated reverse transcriptase Y181I
pIC50: −log10 of the molar value.
Measured Property: pIC50

[[record]]
compound = "CCc1c(Cc2c(Cl)cccc2Cl)nc(SCC=Cc2ccc(OC)cc2)[nH]c1=O [Compound 26e]"
measured_property = "pIC50"
endpoint_result = "< 4.70"

[[record]]
compound = "C=Cc1cc(N(C)C)nc(S(C)(=O)=O)n1"
measured_property = "pIC50"
endpoint_result = 4.11

[[record]]
compound = "COc1ccc(C=CCSc2nc(C(C)c3c(F)cccc3F)c(C)c(=O)[nH]2)cc1 (centres unmarked) [Compound 26n]"
measured_property = "pIC50"
endpoint_result = "< 4.70"


# input Quick one: pIC50 of COc1ccc(C=CCSc2nc(C(C)c3c(Cl)cccc3Cl)c(C)c(=O)[nH]2)cc1 (centres unmarked) [Compound 26g] ?
# output < 4.70

# input Give the measured pIC50 of "C=Cc1nc(S(C)(=O)=O)nc(N(C)C)c1I" .
# output < 3.40

# input // lookup pIC50 for Cc1c(Cc2c(F)cccc2F)nc(SCC=Cc2ccc([N+](=O)[O-])cc2)[nH]c1=O [Compound 26i]
# output < 4.70

# input Find the recorded pIC50 belonging to CCc1c(C(C)c2c(F)cccc2F)nc(SCC=Cc2ccc([N+](=O)[O-])cc2)[nH]c1=O (centres unmarked) [Compound 26q] and report it.
# output < 4.70

# input Fill in the blank: the reported pIC50 of C=Cc1cc(N(CC)CC)nc(S(C)(=O)=O)n1 [MB3B, reference compound] is ____.
# output < 3.40

* * *

Form field: CC50 at 5 days (one value per entry).
assay: Cytotoxicity in mock-infected MT-4 cells (MTT); format: cell-based; details: human

Observe how each entry below is paired with its result.
[[record]]
compound = "Cc1c(Cc2c(F)cccc2F)nc(SCC#Cc2ccc([N+](=O)[O-])cc2)[nH]c1=O [Compound 27a]"
measured_property = "CC50 at 5 days"
endpoint_result = "> 58.6 µM"

[[record]]
compound = "CCc1c(Cc2c(Cl)cccc2Cl)nc(SCC=Cc2ccc(C#N)cc2)[nH]c1=O [Compound 26c]"
measured_property = "CC50 at 5 days"
endpoint_result = "> 54.8 µM"

[[record]]
compound = "COc1ccc(C=CCSc2nc(C(C)c3c(Cl)cccc3Cl)c(C)c(=O)[nH]2)cc1 (stereo not shown) [Compound 26g]"
measured_property = "CC50 at 5 days"
endpoint_result = "> 10.8 µM"


# input May I ask what CC50 at 5 days has been recorded for Cc1c(C(C)c2c(F)cccc2F)nc(SCC=Cc2ccc(C#N)cc2)[nH]c1=O (stereo not shown) [Compound 26o] ?
# output > 59.1 µM

* * *

target: reverse transcriptase containing the mutation K103N (Human immunodeficiency virus type 1 group M subtype B, UniProt P03366, K702N); construct: cloning the gene of the mutated RT in an expression vector for prokariotic cells; assay: Enzyme test with mutated reverse transcriptase K103N
pIC50: −log10 of the molar value.
Each record here notes measured pIC50.

[[record]]
compound = "CCc1c(Cc2c(Cl)cccc2Cl)nc(SCC=Cc2ccc(OC)cc2)[nH]c1=O [Compound 26e]"
measured_property = "pIC50"
endpoint_result = "< 4.70"

[[record]]
compound = "C=Cc1cc(N(C)C)nc(S(C)(=O)=O)n1"
measured_property = "pIC50"
endpoint_result = 4.55

[[record]]
compound = "C=Cc1cc(N(CC)CC)nc(S(C)(=O)=O)n1 [MB3B, reference compound]"
measured_property = "pIC50"
endpoint_result = "< 3.40"

[[record]]
compound = "CCc1c(C(C)c2c(F)cccc2F)nc(SCC=Cc2ccc([N+](=O)[O-])cc2)[nH]c1=O (stereo not drawn) [Compound 26q]"
measured_property = "pIC50"
endpoint_result = "< 4.70"

[[record]]
compound = "COc1ccc(/C=C/CSc2nc(Cc3c(Cl)cccc3Cl)c(C)c(=O)[nH]2)cc1 [Compound 26a]"
measured_property = "pIC50"
endpoint_result = 5.05


# input # get_value(readout='pIC50', item= Cc1c(Cc2c(Cl)cccc2Cl)nc(SCC=Cc2ccc([N+](=O)[O-])cc2)[nH]c1=O [Compound 26b] )
# output < 4.70

# input Query (compound): CCc1c(Cc2c(Cl)cccc2Cl)nc(SCC=Cc2ccc([N+](=O)[O-])cc2)[nH]c1=O [Compound 26f] ; field requested: pIC50
# output < 4.70

# input For Cc1c(C(C)c2c(F)cccc2F)nc(SCC=Cc2ccc([N+](=O)[O-])cc2)[nH]c1=O (stereo not drawn) [Compound 26m] , what is its reported pIC50?
# output < 4.70

# input pIC50 for Cc1c(Cc2c(F)cccc2F)nc(SCC=Cc2ccc([N+](=O)[O-])cc2)[nH]c1=O [Compound 26i] ?
# output < 4.70

* * *

EC50: recorded values
Tested on: HIV-1 mutant Y188L
Assay: Inhibition of viral proliferation on culture cells (MT-4, MTT), Y188L mutant
Type: cell-based
Settings: Human immunodeficiency virus 1, read-out: Y188L
Procedure: The biological activity of the compounds was evaluated on lymphoid cell lines MT-4 against the wild strain of HIV-1 NL4-3. The MT-4 cells were briefly infected with the appropriate HIV-1 or the infection was simulated to determine the cytoxicity, in the presence of different concentrations of potential inhibitor compounds. 5 days after the infection a colorimetric method was used that involves using a tetrazole salt (MTT) to evaluate the number of surviving cells. […]

[[record]]
molecule = "Cc1c(C(C)c2c(F)cccc2F)nc(SCC=Cc2ccc([N+](=O)[O-])cc2)[nH]c1=O (stereo not drawn) [Compound 26m]"
endpoint_result = "> 11.3 µM"


# input For Cc1c(Cc2c(Cl)cccc2Cl)nc(SCC=Cc2ccc(N(C)C)cc2)[nH]c1=O [Compound 26d] , what is its reported EC50?
# output > 54.4 µM

# input For the molecule shown here, Cc1c(Cc2c(F)cccc2F)nc(SCC#Cc2ccc([N+](=O)[O-])cc2)[nH]c1=O [Compound 27a] , give the reported EC50.
# output > 58.6 µM
